Taken from ChEMBL document CHEMBL2218924.

molecular target: Interleukin-1 receptor-associated kinase 1 (Homo sapiens) (UniProt P51617); conditions: at 10 µM
Sequence (P51617 whole entry, looked up): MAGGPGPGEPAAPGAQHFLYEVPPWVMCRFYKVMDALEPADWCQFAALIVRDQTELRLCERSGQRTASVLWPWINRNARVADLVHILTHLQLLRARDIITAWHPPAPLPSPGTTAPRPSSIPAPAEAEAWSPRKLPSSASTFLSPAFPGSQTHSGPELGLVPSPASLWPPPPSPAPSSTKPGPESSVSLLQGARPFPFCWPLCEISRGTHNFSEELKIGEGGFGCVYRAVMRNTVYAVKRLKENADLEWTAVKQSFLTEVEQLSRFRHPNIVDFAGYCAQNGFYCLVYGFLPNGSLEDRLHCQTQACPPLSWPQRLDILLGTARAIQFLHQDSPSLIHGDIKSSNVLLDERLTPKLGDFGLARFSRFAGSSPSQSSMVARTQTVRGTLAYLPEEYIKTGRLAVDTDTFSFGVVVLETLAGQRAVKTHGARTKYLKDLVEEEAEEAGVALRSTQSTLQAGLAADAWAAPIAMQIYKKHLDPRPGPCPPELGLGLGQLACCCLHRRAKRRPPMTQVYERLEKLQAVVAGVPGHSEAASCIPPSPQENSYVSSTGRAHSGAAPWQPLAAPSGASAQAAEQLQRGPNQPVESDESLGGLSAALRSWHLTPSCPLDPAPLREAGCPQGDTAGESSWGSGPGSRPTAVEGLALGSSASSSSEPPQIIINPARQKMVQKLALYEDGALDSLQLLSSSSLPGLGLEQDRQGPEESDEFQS
Class key for residual activity values: lower (below 70%), middle (70% to below 90%), upper (90% or more)

[ask] State the band of "N#CC(C#N)=C(N)/C(C#N)=C/c1ccc(O)cc1"
[reply] middle

[ask] State the band of "Cn1nc2c3c(cccc31)C(=O)c1ccccc1-2"
[reply] middle

[ask] State the band of "C[C@@H](N)[C@H]1CC[C@H](C(=O)Nc2ccncc2)CC1"
[reply] upper

[ask] State the band of "O=C(Nc1cccc(Nc2nccc(Nc3cccc(C(F)(F)F)c3)n2)c1)C1CC1"
[reply] middle

[ask] State the band of "COc1cccc(-c2cc(=O)c3ccccc3o2)c1N"
[reply] upper

[ask] State the band of "CC#CC(=O)Nc1cc2c(Nc3ccc(F)c(Cl)c3)ncnc2cn1"
[reply] middle

[ask] State the band of "O=C(O)c1ccc2c3c1cccc3c(=O)n1c3ccccc3nc21"
[reply] lower

[ask] State the band of "Oc1n[nH]c2nnc(-c3c(-c4ccccc4)nn4ccccc34)cc12"
[reply] upper

[ask] State the band of "O=C1NC(=O)/C(=C\c2ccc3nccnc3c2)S1"
[reply] lower

[ask] State the band of "COc1cc2ncnc(Nc3ccc(NC(=O)c4ccccc4)cc3)c2cc1OC"
[reply] upper

[ask] State the band of "Cc1cncc2cccc(S(=O)(=O)N3CCCN(C(=O)CN)C[C@H]3C)c12"
[reply] lower

[ask] State the band of "Oc1ccc(-c2nc(-c3ccc(F)cc3)c(-c3ccncc3)[nH]2)cc1"
[reply] middle

[ask] State the band of "N#C/C(=C(\N)Sc1ccc(N)cc1)c1ccccc1C(F)(F)F"
[reply] upper

[ask] State the band of "CCOc1cc2ncnc(Nc3cccc(Br)c3)c2cc1OCC"
[reply] lower

[ask] State the band of "Cc1cc2ncc(-c3ccccc3)nc2cc1C"
[reply] upper

[ask] State the band of "COc1cc2ncnc(Nc3ccc(O)c(Br)c3)c2cc1OC"
[reply] lower

[ask] State the band of "COc1cc2ncnc(N3CCN(C(=O)Nc4ccc(Oc5ccccc5)cc4)CC3)c2cc1OC"
[reply] lower

[ask] State the band of "CO[C@@H]1[C@H](N(C)C(=O)c2ccccc2)C[C@H]2O[C@]1(C)n1c3ccccc3c3c4c(c5c6ccccc6n2c5c31)C(=O)NC4"
[reply] middle

[ask] State the band of "O=C1NC(=O)c2cc(Nc3ccc(F)cc3)c(Nc3ccc(F)cc3)cc21"
[reply] lower

----------
target: Tyrosine-protein kinase HCK (Homo sapiens); settings: at 1 µM
Exercise: for every item that follows, state its recorded residual activity.
# output: bare number, implied unit %

[ask] Return reported residual activity. Input compound: "Cc1ccc(NC2=CC(=O)c3sc(C)nc3C2=O)cc1"
[reply] 85

[ask] Return reported residual activity. Input compound: "O=C(Nc1cccc(Nc2nccc(Nc3cccc(C(F)(F)F)c3)n2)c1)C1CC1"
[reply] 42

[ask] Return reported residual activity. Input compound: "CO[C@H]1C[C@@H]2CC[C@@H](C)[C@@](O)(O2)C(=O)C(=O)N2CCCC[C@H]2C(=O)O[C@H]([C@H](C)C[C@@H]2CC[C@@H](O)[C@H](OC)C2)CC(=O)[C@H](C)/C=C(\C)[C@@H](O)[C@@H](OC)C(=O)[C@H](C)C[C@H](C)/C=C/C=C/C=C/1C"
[reply] 73

[ask] Return reported residual activity. Input compound: "CC(=O)O/N=C1\C(=C2\C(=O)Nc3cc(Br)ccc32)Nc2ccccc21"
[reply] 22

[ask] Return reported residual activity. Input compound: "Nc1n[nH]c2nnc(-c3c(-c4ccccc4)nn4ccccc34)cc12"
[reply] 76

[ask] Return reported residual activity. Input compound: "O=C1NC(=O)/C(=C\c2ccc3nccnc3c2)S1"
[reply] 76

[ask] Return reported residual activity. Input compound: "N#C/C(=C(\N)Sc1ccc(N)cc1)c1ccccc1C(F)(F)F"
[reply] 67

[ask] Return reported residual activity. Input compound: "O=C(O)c1ccc2c3c1cccc3c(=O)n1c3ccccc3nc21"
[reply] 102

[ask] Return reported residual activity. Input compound: "COc1cc2ncnc(Nc3ccc(Oc4ccccc4)cc3)c2cc1OC"
[reply] 4

----------
Exercise: for every item that follows, state its recorded residual activity.
target: Serine/threonine-protein kinase PLK2 (Homo sapiens); settings: at 10 µM
Description: Millipore: Percentage of residual kinase activity of PLK2 at 10uM relative to control. Control inhibitor: Phosphoric acid* at 0.3uM. Buffer: 8 mM MOPS pH 7.0, 0.2 mM EDTA
# output: bare number, implied unit %

[ask] Return reported residual activity. Input compound: "COc1cc2ncnc(Nc3ccc(Oc4ccccc4)cc3)c2cc1OC"
[reply] 105

[ask] Return reported residual activity. Input compound: "CC(=O)c1ccc(N2CCOCC2)cc1O"
[reply] 98

[ask] Return reported residual activity. Input compound: "COc1cc2ncnc(Nc3ccc(O)c(Br)c3)c2cc1OC"
[reply] 85

[ask] Return reported residual activity. Input compound: "Cc1cc(Nc2nc(-c3ccccc3)nc3ccccc23)n[nH]1"
[reply] 56

[ask] Return reported residual activity. Input compound: "Oc1ccc(-c2nc(-c3ccc(F)cc3)c(-c3ccncc3)[nH]2)cc1"
[reply] 104

[ask] Return reported residual activity. Input compound: "Nc1cccc(-c2cc3c(Oc4cccc(O)c4)ncnc3[nH]2)c1"
[reply] 65

[ask] Return reported residual activity. Input compound: "CC(C)n1cnc2c(NCc3ccccc3)nc(NCCCO)nc21"
[reply] 88

[ask] Return reported residual activity. Input compound: "Cc1nc(-c2ccccc2)c(-c2ccncc2)o1"
[reply] 104

[ask] Return reported residual activity. Input compound: "O=c1cc(-c2cccc3c2Sc2ccccc2S3)oc(N2CCOCC2)c1"
[reply] 96

[ask] Return reported residual activity. Input compound: "O=C(O)c1ccc2c3c1cccc3c(=O)n1c3ccccc3nc21"
[reply] 94

[ask] Return reported residual activity. Input compound: "COc1ccc(CNc2nc(N(CCO)CCO)nc3c2ncn3C(C)C)cc1"
[reply] 94

[ask] Return reported residual activity. Input compound: "O=C1NC(=O)/C(=C\c2ccc3nccnc3c2)S1"
[reply] 73

----------
target: Serine/threonine-protein kinase PAK 5 (Homo sapiens) (UniProt Q9P286); details: at 10 µM
Sequence (Q9P286 whole entry, looked up): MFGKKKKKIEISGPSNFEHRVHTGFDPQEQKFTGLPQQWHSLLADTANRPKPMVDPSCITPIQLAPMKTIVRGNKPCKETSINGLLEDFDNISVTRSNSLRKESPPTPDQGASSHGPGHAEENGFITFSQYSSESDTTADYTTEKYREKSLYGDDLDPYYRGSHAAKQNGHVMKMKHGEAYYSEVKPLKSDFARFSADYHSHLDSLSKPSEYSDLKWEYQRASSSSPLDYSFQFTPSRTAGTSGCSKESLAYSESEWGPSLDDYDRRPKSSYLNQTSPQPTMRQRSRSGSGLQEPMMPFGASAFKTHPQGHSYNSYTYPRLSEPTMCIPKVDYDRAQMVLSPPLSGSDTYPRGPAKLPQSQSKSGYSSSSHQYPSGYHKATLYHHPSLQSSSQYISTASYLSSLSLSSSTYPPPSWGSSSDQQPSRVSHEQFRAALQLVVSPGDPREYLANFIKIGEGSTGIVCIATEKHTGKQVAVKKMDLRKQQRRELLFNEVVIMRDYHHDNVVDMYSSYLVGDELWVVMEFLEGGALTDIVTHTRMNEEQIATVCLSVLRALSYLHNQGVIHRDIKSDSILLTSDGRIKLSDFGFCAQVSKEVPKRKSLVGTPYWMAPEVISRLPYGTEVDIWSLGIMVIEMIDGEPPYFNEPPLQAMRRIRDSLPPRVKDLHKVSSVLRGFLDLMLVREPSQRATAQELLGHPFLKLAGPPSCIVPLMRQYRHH
Exercise: for every item that follows, state its recorded residual activity.
# output: bare number, implied unit %

[ask] Return reported residual activity. Input compound: "O=C1Nc2cc(Br)ccc2/C1=C1/Nc2ccccc2/C1=N\O"
[reply] 55

[ask] Return reported residual activity. Input compound: "COc1ccc(S(=O)(=O)N(CCO)c2ccccc2CN(C)C/C=C/c2ccc(Cl)cc2)cc1"
[reply] 77

[ask] Return reported residual activity. Input compound: "N#Cc1cnc2cnc(NCc3cccnc3)cc2c1Nc1ccc(F)c(Cl)c1"
[reply] 5

[ask] Return reported residual activity. Input compound: "CN(C)CCCn1cc(C2=C(c3c[nH]c4ccccc34)C(=O)NC2=O)c2ccccc21"
[reply] 77

[ask] Return reported residual activity. Input compound: "Cc1nc(-c2ccccc2)c(-c2ccncc2)o1"
[reply] 95

[ask] Return reported residual activity. Input compound: "O=[N+]([O-])c1ccc(-c2nc(-c3ccc(F)cc3)c(-c3ccncc3)[nH]2)cc1"
[reply] 96

[ask] Return reported residual activity. Input compound: "COc1cc2ncnc(N3CCN(C(=O)Nc4ccc(Oc5ccccc5)cc4)CC3)c2cc1OC"
[reply] 122

[ask] Return reported residual activity. Input compound: "CC#CC(=O)Nc1cc2c(Nc3ccc(F)c(Cl)c3)ncnc2cn1"
[reply] 107

[ask] Return reported residual activity. Input compound: "Oc1c2ccccc2c2c3c(cccc13)N=N2"
[reply] 64

[ask] Return reported residual activity. Input compound: "Oc1n[nH]c2nnc(-c3c(-c4ccccc4)nn4ccccc34)cc12"
[reply] 101

[ask] Return reported residual activity. Input compound: "Cn1cnc2cc3c(Nc4cccc(Br)c4)ncnc3cc21"
[reply] 90

[ask] Return reported residual activity. Input compound: "Nc1nc(Nc2ccc(S(N)(=O)=O)cc2)nn1C(=S)Nc1c(F)cccc1F"
[reply] 1

[ask] Return reported residual activity. Input compound: "Cc1cc(Nc2nc(-c3ccccc3)nc3ccccc23)n[nH]1"
[reply] 3

[ask] Return reported residual activity. Input compound: "O=c1cc(-c2cccc3c2Sc2ccccc2S3)oc(N2CCOCC2)c1"
[reply] 91

[ask] Return reported residual activity. Input compound: "COc1cccc(-c2cc(=O)c3ccccc3o2)c1N"
[reply] 99

[ask] Return reported residual activity. Input compound: "COc1ccc(OC)c2c(=S)c3ccccc3[nH]c12"
[reply] 101

[ask] Return reported residual activity. Input compound: "Cc1cccc(-c2[nH]c(C(C)(C)C)nc2-c2ccc3c(c2)OCO3)n1"
[reply] 102

[ask] Return reported residual activity. Input compound: "O=C(Nc1cccc(Nc2cc(Nc3cccc(C(F)(F)F)c3)ncn2)c1)C1CC1"
[reply] 98

[ask] Return reported residual activity. Input compound: "N#CCCc1ccc2c(c1)-c1[nH]c3ccc([N+](=O)[O-])cc3c1CC(=O)N2"
[reply] 7

[ask] Return reported residual activity. Input compound: "Cc1ccc(S(=O)(=O)/C=C/C#N)cc1"
[reply] 106

[ask] Return reported residual activity. Input compound: "c1ccc(-c2n[nH]c3c2oc2ccccc23)cc1"
[reply] 86

[ask] Return reported residual activity. Input compound: "CC(C)n1cnc2/c(=N/c3cccc(Cl)c3)nc(NCCO)[nH]c21"
[reply] 33

[ask] Return reported residual activity. Input compound: "Cc1nc2cc3nc(-c4cccs4)cnc3cc2n1C"
[reply] 105

[ask] Return reported residual activity. Input compound: "Nc1n[nH]c2nnc(-c3c(-c4ccccc4)nn4ccccc34)cc12"
[reply] 90

[ask] Return reported residual activity. Input compound: "CO[C@H]1[C@@H](OC)C[C@H](C)[C@@H](OC)C2=CC(=O)C=C(NC(=O)/C(C)=C/C=C/[C@H](OC)[C@@H](OC(N)=O)/C(C)=C/[C@@H]1C)C2=O"
[reply] 64

[ask] Return reported residual activity. Input compound: "O=Nc1c(-c2c(O)[nH]c3ccccc23)[nH]c2ccccc12"
[reply] 33

[ask] Return reported residual activity. Input compound: "CCC(=O)Nc1ccc2ncnc(Nc3cccc(Br)c3)c2c1"
[reply] 98

[ask] Return reported residual activity. Input compound: "O=C1NC(=O)/C(=C/c2ccc3c(c2)OC(F)(F)O3)S1"
[reply] 70

[ask] Return reported residual activity. Input compound: "CCN(CC)C(=O)c1ccc(Nc2nc(OCC3CCCCC3)c3nc[nH]c3n2)cc1"
[reply] 3

[ask] Return reported residual activity. Input compound: "C[C@@H](N)[C@H]1CC[C@H](C(=O)Nc2ccncc2)CC1"
[reply] 106

[ask] Return reported residual activity. Input compound: "Cn1cc(/C=C2\C(=O)Nc3ccc(S(N)(=O)=O)cc32)c2ccccc21"
[reply] 26

[ask] Return reported residual activity. Input compound: "Ic1cccc(CSc2nnc(-c3ccncc3)o2)c1"
[reply] 72

[ask] Return reported residual activity. Input compound: "N#C/C(=C(\N)Sc1ccc(N)cc1)c1ccccc1C(F)(F)F"
[reply] 89

[ask] Return reported residual activity. Input compound: O=C1Nc2ccccc2/C1=C1/Nc2ccccc2/C1=N\OCCC(O)CO (centres undefined)
[reply] 30
